Assay: Particle size of nucleic acid lipid particles (FVII-siRNA)
Type: physicochemical
Form field: Particle size (nm) (one value per entry).
Write the answer as a number in nm, unit excluded.

Look over these answered cases.
Molecule	Unit string	Test value
CCCC/C=C\CCCCCCCC(=O)OCCCCCCC(CCCCCCOC(=O)CCCCCCC/C=C\CCCC)OC(=O)OCCN(CC)CCN(CC)CC [Example 47]	nm	79.4
CCCCCCCC(=O)OCCN(CCOC(=O)OC(CCCCCC)CCCCCCCCC(=O)OCC(CCCC)CCCCCC)CCN(CC)CC (stereo not drawn) [Example 88]	nm	78.7

Moving on to the next molecule.
Input line: # get_value(readout='Particle size (nm)', item= CCCCCCCCCC(CCCCCCCCC(=O)OCC(CCCC)CCCCCC)OC(=O)OCCN(CC)CCN(CC)CC (stereo not drawn) [Example 75] )
Output line: 79.1

----------
Form field: Nucleic acid encapsulation rate (one value per entry).
Experiment: Encapsulation rate of siRNA in nucleic acid lipid particles (Luc2-siRNA)
Format: physicochemical
Details: compound/DSPC/cholesterol/DMG-PEG2000 50/10/38.5/1.5
Protocol: The compounds described in Table 2, L-α-distearoylphosphatidylcholine (trade name: COATSOME® MC-8080; NOF corporation), cholesterol (trade name: Choesterol HP; NIPPON FINE CHEMICAL CO., LTD.), and 1,2-dimyristoyl-rac-glycero-3-(methylpolyoxyethylene 2000) (hereinafter, called DMG-PEG2000) (trade name: SUNBRIGHT® GM-020; NOF corporation) were dissolved in ethanol at a molar ratio of 50/10/38.5/1.5 such that the total lipid concentration became 20 mmol/L, thereby obtaining an oil phase. […]
Write the answer as a number in %, unit excluded.

Molecule	Readout type	Test value
CCCCC/C=C\C/C=C\CCCCCCCCN(CCCCCCCC/C=C\C/C=C\CCCCC)C(=O)OC1CCN(CCN(C)C)CC1	Nucleic acid encapsulation rate	100
CCCCC/C=C\C/C=C\CCCCCCCCC(CCCCCCCC/C=C\C/C=C\CCCCC)OC(=O)OCCN(C)CCN	Nucleic acid encapsulation rate	97

Input line: # get_value(readout='Nucleic acid encapsulation rate', item= CCCCC/C=C\C/C=C\CCCCCCCCC(CCCCCCCC/C=C\C/C=C\CCCCC)OC(=O)CCCN(C)C [Reference Example 1, reference compound] )
Output line: 81

Input line: # get_value(readout='Nucleic acid encapsulation rate', item= CCCCCCCCCC(=O)OCCN(CCOC(=O)OC(CCCCCC)CCCCCCCCC(=O)OCC(CCCCCC)CCCCCCCC)CCN(CC)CC (stereo not shown) )
Output line: 82

Input line: # get_value(readout='Nucleic acid encapsulation rate', item= CCCCCCC(CCCC)COC(=O)CCCCCCCCC(CCCCCC)OC(=O)OCCN(CCOC(=O)CCCCC)CCN(CC)CC (stereo not shown) )
Output line: 81

Input line: # get_value(readout='Nucleic acid encapsulation rate', item= CCCCC/C=C\C/C=C\CCCCCCCC(CCCCCCCCCC)OC(=O)OCCN(C)CCN(C)C (stereo not shown) )
Output line: 77

Input line: # get_value(readout='Nucleic acid encapsulation rate', item= CCCCC/C=C\C/C=C\CCCCCCCCN(CCCCCCCC/C=C\C/C=C\CCCCC)C(=O)OCCN(CC)CCN1CCOCC1 )
Output line: 78

Input line: # get_value(readout='Nucleic acid encapsulation rate', item= CCCCC/C=C\C/C=C\CCCCCCCCC(CCCCCCCC/C=C\C/C=C\CCCCC)OC(=O)OCCN(CCCC)CCN(C)C )
Output line: 87

Input line: # get_value(readout='Nucleic acid encapsulation rate', item= CCCCCCCC(=O)OCCN(CCOC(=O)OC(CCCCCC)CCCC(=O)OCC(CCCC)CCCCCC)CCN(CC)CC (stereo not shown) )
Output line: 81
